Reference for the values: PubChem BioAssay AID372

test.target: Gag-Pol polyprotein (Human immunodeficiency virus type 1 group M subtype B (isolate HXB2)) (UniProt P04585)
protocol.notes: RNase H inhibition, HIV 1 Gag Pol polyprotein, FRET biochemical assay, screening (AID 372)
condition.notes: HIV-1 RT RNase H, FRET RNA/DNA substrate fluorescence; at 10 µM; hits give high values
Among all 100,000 compounds or so, about 770 (0.77%) were called active. This excerpt belongs to a sample that is enriched for actives.
quantity.kind: inhibition (%)
Your answer is read as %, so omit the unit and give the number.

Name the reported inhibition value associated with the compound CC12c3ccccc3C(C)(c3ccccc31)C1C(=O)NC(=O)C12 (configuration not stated)
3

Request: COc1ccc(OC)c(/C=C/C(=O)c2c(-c3ccccc3)c3cc(Cl)ccc3[nH]c2=O)c1
50

Another compound to check: O=C1/C(=C/c2ccc(O)c([N+](=O)[O-])c2)SC(=S)N1Cc1ccccc1
23

Further, for CC(C)(C)c1cc(C(=O)NCC(=O)OCC(=O)c2ccccc2)cc(C(C)(C)C)c1 ?
18

Now consider CCOC(=O)C1=C(c2ccccc2)OC(N)=C(C#N)C1c1cccs1 (configuration not stated) and answer again.
15

Cc1c(-c2ccc(/C=N/N=C3/NC(=O)CS3)o2)ccc([N+](=O)[O-])c1C ?
45

Another compound: COc1cc(NC(=O)c2ccc(Cl)cc2Cl)ccc1NC(=O)c1cc2ccccc2o1
21

Same again, this time with Cc1cc(/C=C(\C#N)C(=O)Nc2ccc(F)cc2)c(C)n1-c1ccc2c(c1)OCO2
7

Try this compound too: CCN1C(=O)/C(=C\c2cc(OC)ccc2O)SC1=S
24

Same again, this time with O=C(Cc1cccs1)Nc1ccc(/C=C/C(=O)c2ccccc2)cc1
8

# iterate: CCN1C(=O)/C(=C\c2cc(Cl)ccc2O)SC1=S
16

Same question, CCCC1=C(C(=O)OCC)C(c2cccs2)C(C#N)=C(N)O1 (configuration not stated) this time
56

Now give it for Cc1c(N2C(=O)S/C(=C\c3ccc(N(C)C)cc3)C2=O)c(=O)n(-c2ccccc2)n1C too.
67

Then COc1ccc(Br)cc1CNC12CC3CC(CC(C3)C1)C2 ?
6

Now give it for Cc1c(N2C(=O)S/C(=C\c3ccccc3)C2=O)c(=O)n(-c2ccccc2)n1C too.
0

Request: O=c1oc(/C=C\c2ccccc2)nc2ccc(Cc3ccc4nc(/C=C\c5ccccc5)oc(=O)c4c3)cc12
7

And COc1ccc(/C=C2\SC(=O)N(c3c(C)n(C)n(-c4ccccc4)c3=O)C2=O)cc1 ?
0

Would you kindly repeat that for COc1cc(/C=C2\SC(=S)N(CCCCCCCCCCC(=O)O)C2=O)ccc1O ?
23

Also CCN1C(=O)/C(=C\c2ccc(O)c(O)c2)SC1=S ?
81

And COc1cccc(N2C(=O)/C(=C/c3ccc(O)c(OC)c3)SC2=S)c1 ?
22

Try O=C(CN1C(=O)/C(=C/c2ccccc2Cl)SC1=S)Nc1nccs1 next.
14

// query: O=C1/C(=C\c2ccc(O)c(O)c2)SC(=S)N1Cc1ccccc1
73

Would you kindly repeat that for COc1cc(/C=C/C(=O)c2c(-c3ccccc3)c3cc(Cl)ccc3[nH]c2=O)cc(Br)c1OC ?
26

Same again, this time with COc1ccc(Cl)cc1C(=O)Nc1cccc(-c2nc3ncccc3o2)c1C
3

Same question, COc1ccc(N2C(=O)/C(=C/c3ccc(O)c(OC)c3)SC2=S)cc1 this time
26

Next compound: CCN1C(=O)/C(=C\c2cccc(O)c2)SC1=S
28

What do you have for O=C1CS/C(=N/N=C/c2ccc(-c3ccc(Cl)cc3)o2)N1 ?
21

Try this compound too: COc1cccc(-c2nc(-c3cccc([N+](=O)[O-])c3)no2)c1
5

Consider next the compound CCOC(=O)c1[nH]c(C)c(C(=O)N/N=C/c2ccc(-c3ccc(Cl)cc3)o2)c1C in the same way.
18

What about this compound? COc1ccc(/C=C2/SC(=S)N(C)C2=O)cc1O
43

Please do the same for CCOC(=O)C1=C(CC)OC(N)=C(C#N)C1c1cccs1 (configuration not stated) as well.
30

Proceed to O=C1/C(=C\c2ccc(O)cc2)SC(=S)N1Cc1ccccc1
46

What do you have for Cc1c(N2C(=O)S/C(=C\c3cccc([N+](=O)[O-])c3)C2=O)c(=O)n(-c2ccccc2)n1C ?
59

Please do the same for COc1ccccc1/C=C/C(=O)c1c(-c2ccccc2)c2cc(Cl)ccc2[nH]c1=O as well.
60

Now consider COc1ccc(N2C(=O)/C(=C\c3ccc(OC)c(O)c3)SC2=S)cc1 .
4

Try the compound O=C(O)CCCCCN1C(=O)/C(=C/c2ccc(O)c(O)c2)SC1=S
53

Same for CN1C(=O)/C(=C/c2ccc(O)c(O)c2)SC1=S
83

And what about the compound Cc1c(N2C(=O)/C(=C/c3cccc([N+](=O)[O-])c3)SC2=S)c(=O)n(-c2ccccc2)n1C ?
13

Next record, please: NS(=O)(=O)c1ccc2c(c1)C1C=CCC1C(c1ccc([N+](=O)[O-])cc1)N2 (configuration not stated)
19

Check Cc1c(N2C(=O)S/C(=C\c3ccc([N+](=O)[O-])cc3)C2=O)c(=O)n(-c2ccccc2)n1C too.
3

Next: CCOc1cc(/C=C2\SC(=S)N(C)C2=O)ccc1O
22

Also need O=C(/C=C\c1ccc([N+](=O)[O-])cc1)Nc1ccc(N2CCOCC2)cc1 , thanks.
7
